Measured pIC50 values are reported for all entries that follow.
molecular target: ATM (Homo sapiens, UniProt Q13315); construct: detecting phosphorylation of Chk2 in a human non-small cell lung cancer cell line NCI-H460 (ATCC company); host or cells: NCI-H460 human non-small cell lung cancer cells; assay: ATM inhibition test (phosphorylation of Chk2 generated by ionizing radiation, AlphaScreen SureFire); assay type: cell-based; conditions: phosphorylated Chk2 in NCI-H460 cells, ionizing radiation 8Gy, 1 hour after test compound treatment; read-out: ATM inhibitory activity
Sequence (Q13315 whole entry): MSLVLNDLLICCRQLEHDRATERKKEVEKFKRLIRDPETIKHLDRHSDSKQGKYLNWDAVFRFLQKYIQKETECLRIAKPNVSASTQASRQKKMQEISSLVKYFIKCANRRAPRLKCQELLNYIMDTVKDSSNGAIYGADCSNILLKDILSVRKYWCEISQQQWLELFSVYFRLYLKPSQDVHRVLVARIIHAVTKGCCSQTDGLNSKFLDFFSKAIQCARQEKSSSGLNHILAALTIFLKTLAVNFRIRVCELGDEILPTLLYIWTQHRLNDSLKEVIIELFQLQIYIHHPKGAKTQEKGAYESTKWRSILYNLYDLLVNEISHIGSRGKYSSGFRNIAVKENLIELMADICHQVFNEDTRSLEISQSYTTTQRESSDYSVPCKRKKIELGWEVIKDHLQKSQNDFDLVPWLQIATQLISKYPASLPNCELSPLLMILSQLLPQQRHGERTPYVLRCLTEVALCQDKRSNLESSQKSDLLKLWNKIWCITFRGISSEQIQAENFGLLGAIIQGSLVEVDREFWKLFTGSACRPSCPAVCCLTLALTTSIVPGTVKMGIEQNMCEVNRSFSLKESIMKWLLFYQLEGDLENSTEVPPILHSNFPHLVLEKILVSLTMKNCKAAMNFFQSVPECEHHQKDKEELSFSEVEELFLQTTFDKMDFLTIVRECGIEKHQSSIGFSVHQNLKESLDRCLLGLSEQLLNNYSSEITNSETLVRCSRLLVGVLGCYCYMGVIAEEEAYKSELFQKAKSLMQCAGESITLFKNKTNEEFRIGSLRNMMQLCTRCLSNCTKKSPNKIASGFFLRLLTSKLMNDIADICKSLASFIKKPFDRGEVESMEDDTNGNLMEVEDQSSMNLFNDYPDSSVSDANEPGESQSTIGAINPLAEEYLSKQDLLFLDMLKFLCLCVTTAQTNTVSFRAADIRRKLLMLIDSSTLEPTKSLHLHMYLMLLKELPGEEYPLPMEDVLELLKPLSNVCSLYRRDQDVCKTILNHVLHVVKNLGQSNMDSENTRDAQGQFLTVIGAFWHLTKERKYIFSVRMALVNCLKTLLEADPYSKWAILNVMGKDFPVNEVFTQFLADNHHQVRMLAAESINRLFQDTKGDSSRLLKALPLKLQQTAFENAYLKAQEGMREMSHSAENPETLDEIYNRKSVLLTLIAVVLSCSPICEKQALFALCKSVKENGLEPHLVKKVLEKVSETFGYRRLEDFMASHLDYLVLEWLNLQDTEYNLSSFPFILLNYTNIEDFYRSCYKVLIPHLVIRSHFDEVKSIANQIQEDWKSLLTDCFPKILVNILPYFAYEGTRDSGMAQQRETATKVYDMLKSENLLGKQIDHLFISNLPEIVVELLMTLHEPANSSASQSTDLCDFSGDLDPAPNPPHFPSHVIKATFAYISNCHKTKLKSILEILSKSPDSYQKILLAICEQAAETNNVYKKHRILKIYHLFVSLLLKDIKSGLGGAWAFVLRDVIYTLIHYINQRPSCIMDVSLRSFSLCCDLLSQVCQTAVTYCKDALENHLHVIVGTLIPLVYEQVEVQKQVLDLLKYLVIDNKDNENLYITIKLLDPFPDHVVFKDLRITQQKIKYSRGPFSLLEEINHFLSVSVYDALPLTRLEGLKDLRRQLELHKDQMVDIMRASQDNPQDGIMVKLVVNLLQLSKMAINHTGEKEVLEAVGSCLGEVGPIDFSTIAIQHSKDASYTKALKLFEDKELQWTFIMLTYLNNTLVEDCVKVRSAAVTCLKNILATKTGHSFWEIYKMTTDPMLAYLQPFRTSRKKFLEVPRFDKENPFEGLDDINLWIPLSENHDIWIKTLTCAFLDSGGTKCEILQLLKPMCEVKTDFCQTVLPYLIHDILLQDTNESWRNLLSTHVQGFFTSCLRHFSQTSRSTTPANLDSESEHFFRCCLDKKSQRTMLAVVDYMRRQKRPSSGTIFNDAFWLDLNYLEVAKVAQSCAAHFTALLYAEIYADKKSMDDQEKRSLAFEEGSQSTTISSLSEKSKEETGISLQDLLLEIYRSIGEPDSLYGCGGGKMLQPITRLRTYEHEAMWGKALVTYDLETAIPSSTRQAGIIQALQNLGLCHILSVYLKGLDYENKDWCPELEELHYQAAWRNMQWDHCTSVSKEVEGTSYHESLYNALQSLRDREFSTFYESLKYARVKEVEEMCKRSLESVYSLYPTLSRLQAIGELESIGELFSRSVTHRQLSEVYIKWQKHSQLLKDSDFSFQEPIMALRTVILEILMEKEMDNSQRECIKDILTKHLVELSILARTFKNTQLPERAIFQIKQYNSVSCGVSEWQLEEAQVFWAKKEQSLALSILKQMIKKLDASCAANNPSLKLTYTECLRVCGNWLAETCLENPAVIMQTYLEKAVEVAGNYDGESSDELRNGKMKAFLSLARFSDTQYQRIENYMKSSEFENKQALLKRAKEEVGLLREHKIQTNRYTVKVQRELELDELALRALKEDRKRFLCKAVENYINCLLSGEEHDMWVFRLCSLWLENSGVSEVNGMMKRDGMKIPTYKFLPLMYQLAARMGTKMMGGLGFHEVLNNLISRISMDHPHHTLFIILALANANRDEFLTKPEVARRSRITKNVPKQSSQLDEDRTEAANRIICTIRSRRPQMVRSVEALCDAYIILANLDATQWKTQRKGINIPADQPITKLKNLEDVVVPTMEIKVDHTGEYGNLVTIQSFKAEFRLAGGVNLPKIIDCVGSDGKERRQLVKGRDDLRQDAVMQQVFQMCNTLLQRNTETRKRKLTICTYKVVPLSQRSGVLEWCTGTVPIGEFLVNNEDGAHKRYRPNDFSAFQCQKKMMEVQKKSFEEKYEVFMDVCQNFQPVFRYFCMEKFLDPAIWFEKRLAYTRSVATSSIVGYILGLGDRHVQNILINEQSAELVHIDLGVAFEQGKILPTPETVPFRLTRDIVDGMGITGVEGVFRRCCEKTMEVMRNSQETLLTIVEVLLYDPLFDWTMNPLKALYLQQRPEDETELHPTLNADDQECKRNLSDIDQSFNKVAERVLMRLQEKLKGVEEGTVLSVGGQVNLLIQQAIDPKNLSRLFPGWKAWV
pIC50: −log10 of the molar value.

Here is how some compounds turned out for pIC50.
[in] What measured pIC50 goes with Cc1cncc(C(C)Nc2ccc3c(c2)Cc2cccc(-c4cc(N5CCOCC5)cc(=O)[nH]4)c2O3)c1 (stereo not drawn) [Example 2-14-22] ?
[out] 6.30 to 7.00

[in] Consider the compound Cc1ccnc(CNc2ccc3c(c2)Cc2cccc(-c4cc(N5CCOCC5)cc(=O)[nH]4)c2O3)c1 [Example 2-2-40] and give its measured pIC50.
[out] > 7.00

[in] Find the recorded pIC50 belonging to COCc1ccc(CCN2CCC(Nc3ccc4c(c3)Cc3cccc(-c5cc(N6CCOCC6)cc(=O)[nH]5)c3O4)CC2)cc1 [Example 2-30-20] and report it.
[out] 5.70 to 6.30

[in] # lookup: pIC50 of CC(Nc1ccc2c(c1)Cc1cccc(-c3cc(N4CCOCC4)cc(=O)[nH]3)c1O2)c1nccc(CF)n1 (single isomer, unassigned) [Example 2-14-94-2]
[out] 6.30 to 7.00

[in] Entry under review: Cn1c(CNc2ccc3c(c2)Cc2cccc(-c4cc(N5CCOCC5)cc(=O)[nH]4)c2O3)cccc1=O [Example 2-2-47] . Reported pIC50?
[out] 5.70 to 6.30

Query compound follows.
[in] Given Cc1nccc(C(C)Nc2ccc3c(c2)Sc2cccc(-c4cc(N5CCOCC5)cc(=O)[nH]4)c2S3)n1 (single isomer, unassigned) [Example 1-12-141-2] , state its recorded pIC50.
[out] 6.30 to 7.00

###

biological target: ATM (Homo sapiens, UniProt Q13315); construct: detecting phosphorylation of Chk2 in a human non-small cell lung cancer cell line NCI-H460 (ATCC company); host or cells: NCI-H460 human non-small cell lung cancer cells; assay: ATM inhibition test (phosphorylation of Chk2 generated by ionizing radiation, AlphaScreen SureFire); type: cell-based; conditions: phosphorylated Chk2 in NCI-H460 cells, ionizing radiation 8Gy, 1 hour after test compound treatment; read-out: ATM inhibitory activity
Measured IC50 by item

[in] What does the record list as IC50 for Cc1ccc(C(Nc2ccc3c(c2)Sc2cccc(-c4cc(N5CCOCC5)cc(=O)[nH]4)c2S3)C2CCN(C)CC2)nc1 (single isomer, unassigned) [Example 1-51-1] ?
[out] < 0.1 µM

[in] # IC50 lookup, item O=c1cc(N2CCOCC2)cc(-c2cccc3c2Oc2ccc(NCc4cnc5occc5c4)cc2C3)[nH]1
[out] < 0.1 µM

[in] Give its IC50 value. Item: COC[C@H](CN1CCOCC1)Nc1ccc2c(c1)Sc1cccc(-c3cc(=O)cc(N4CCOCC4)o3)c1S2
[out] < 0.1 µM

[in] Bench note: what IC50 did CC1CCCCN1CC(CO)Nc1ccc2c(c1)Sc1cccc(-c3cc(N4CCOCC4)cc(=O)[nH]3)c1S2 (single isomer, unassigned) [Example 1-37-6] show?
[out] 0.1 to 0.5 µM

[in] Recorded IC50 for O=c1cc(N2CCOCC2)cc(-c2cccc3c2Sc2ccc(N[C@@H]4COC[C@@H]4N4CCOCC4)cc2S3)[nH]1 (relative stereo) , please?
[out] < 0.1 µM

As a next step, examine the compound that follows.
[in] Item under review: CNc1ncc(CNc2ccc3c(c2)Cc2cccc(-c4cc(N5CCOCC5)cc(=O)[nH]4)c2O3)cn1 . Reported IC50?
[out] 0.1 to 0.5 µM
